molecular target: LRRK2 G2019S (Homo sapiens, UniProt Q5S007, G2019S); assay: LRRK2 Kinase Activity Assay (LanthaScreen TR-FRET), G2019S; conditions: recombinant G2019S-LRRK2, 25 μM ATP, 400 nM LRRKtide, 60 min; class symbols
Sequence (Q5S007 whole entry G2019S): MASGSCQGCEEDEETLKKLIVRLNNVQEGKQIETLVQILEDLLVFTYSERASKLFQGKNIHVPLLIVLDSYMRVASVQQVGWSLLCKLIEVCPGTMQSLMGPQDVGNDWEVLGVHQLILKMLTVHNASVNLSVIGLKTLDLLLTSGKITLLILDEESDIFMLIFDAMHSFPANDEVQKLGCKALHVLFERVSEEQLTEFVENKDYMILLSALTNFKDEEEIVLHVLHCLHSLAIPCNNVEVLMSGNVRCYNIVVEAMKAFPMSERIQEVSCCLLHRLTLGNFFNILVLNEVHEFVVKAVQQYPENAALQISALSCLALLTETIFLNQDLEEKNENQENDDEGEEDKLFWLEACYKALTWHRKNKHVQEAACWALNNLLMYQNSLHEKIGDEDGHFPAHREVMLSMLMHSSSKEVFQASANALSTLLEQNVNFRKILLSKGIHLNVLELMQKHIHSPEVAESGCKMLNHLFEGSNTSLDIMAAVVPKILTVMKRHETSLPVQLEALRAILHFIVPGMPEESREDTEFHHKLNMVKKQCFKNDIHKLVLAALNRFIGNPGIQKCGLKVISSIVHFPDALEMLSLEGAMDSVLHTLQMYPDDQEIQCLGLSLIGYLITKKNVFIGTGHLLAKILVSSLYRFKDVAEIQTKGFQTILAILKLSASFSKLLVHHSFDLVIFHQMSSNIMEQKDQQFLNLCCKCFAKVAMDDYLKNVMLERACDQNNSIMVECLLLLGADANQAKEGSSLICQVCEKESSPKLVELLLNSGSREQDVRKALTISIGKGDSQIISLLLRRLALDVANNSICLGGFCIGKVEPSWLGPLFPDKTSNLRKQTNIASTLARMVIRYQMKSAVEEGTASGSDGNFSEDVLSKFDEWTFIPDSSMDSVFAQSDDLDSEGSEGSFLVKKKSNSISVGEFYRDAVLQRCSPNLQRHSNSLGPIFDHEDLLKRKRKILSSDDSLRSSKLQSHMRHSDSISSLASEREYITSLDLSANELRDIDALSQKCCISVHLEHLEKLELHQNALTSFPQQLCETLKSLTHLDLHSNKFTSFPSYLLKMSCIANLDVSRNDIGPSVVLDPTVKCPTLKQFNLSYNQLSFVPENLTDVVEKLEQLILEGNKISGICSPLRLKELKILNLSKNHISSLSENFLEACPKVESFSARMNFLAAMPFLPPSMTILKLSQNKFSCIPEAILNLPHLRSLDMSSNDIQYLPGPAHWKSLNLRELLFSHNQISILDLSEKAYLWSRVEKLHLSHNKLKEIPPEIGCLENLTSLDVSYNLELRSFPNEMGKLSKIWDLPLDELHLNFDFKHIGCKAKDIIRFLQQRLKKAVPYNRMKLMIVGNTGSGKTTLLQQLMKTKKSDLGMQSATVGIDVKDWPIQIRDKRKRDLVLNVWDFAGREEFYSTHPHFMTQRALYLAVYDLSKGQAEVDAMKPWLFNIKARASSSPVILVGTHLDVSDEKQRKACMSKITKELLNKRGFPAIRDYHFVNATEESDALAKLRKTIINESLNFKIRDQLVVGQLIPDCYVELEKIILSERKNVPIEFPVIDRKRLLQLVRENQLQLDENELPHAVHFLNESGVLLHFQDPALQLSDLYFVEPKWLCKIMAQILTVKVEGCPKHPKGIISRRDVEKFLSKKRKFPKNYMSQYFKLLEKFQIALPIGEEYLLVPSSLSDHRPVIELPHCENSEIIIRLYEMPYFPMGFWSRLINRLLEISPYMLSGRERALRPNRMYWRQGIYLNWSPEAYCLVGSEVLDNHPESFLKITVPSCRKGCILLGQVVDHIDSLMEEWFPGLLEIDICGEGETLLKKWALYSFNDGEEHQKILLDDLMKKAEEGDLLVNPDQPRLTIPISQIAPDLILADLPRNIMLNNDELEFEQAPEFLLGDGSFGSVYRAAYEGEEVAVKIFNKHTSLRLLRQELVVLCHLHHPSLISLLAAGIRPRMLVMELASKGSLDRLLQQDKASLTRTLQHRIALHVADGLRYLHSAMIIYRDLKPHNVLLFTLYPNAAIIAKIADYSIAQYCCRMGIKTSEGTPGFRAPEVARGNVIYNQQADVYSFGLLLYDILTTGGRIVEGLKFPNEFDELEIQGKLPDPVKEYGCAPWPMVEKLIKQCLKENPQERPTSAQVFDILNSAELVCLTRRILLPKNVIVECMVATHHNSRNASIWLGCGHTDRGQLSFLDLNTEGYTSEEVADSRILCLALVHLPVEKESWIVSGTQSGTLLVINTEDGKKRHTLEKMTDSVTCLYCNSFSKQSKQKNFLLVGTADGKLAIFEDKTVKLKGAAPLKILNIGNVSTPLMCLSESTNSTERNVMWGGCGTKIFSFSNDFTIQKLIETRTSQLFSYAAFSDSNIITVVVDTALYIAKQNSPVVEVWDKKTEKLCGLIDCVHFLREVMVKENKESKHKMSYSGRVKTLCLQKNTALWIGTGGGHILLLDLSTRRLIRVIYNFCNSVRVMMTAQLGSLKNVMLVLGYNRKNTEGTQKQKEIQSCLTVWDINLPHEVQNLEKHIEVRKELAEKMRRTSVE
Listing of entries alongside the reported IC50.
PROPERTY_LABEL: IC50

>>> result_value("N#Cc1ccc2c(c1)CC[C@@H]2Oc1ccc2[nH]nc(I)c2c1")
"< 100 nM"
>>> result_value("N#Cc1cc2c(nn1)[C@@H](Oc1ccc3[nH]nc(-c4cnco4)c3c1)CC2 (single isomer, unassigned) [Example 41, enantiomer 1]")
"< 100 nM"
>>> result_value("N#Cc1ccc2c(c1)CC[C@H]2Nc1ccc2[nH]nc(I)c2c1 (single isomer, unassigned) [Example 128, enantiomer 1]")
"100 to 1000 nM"
>>> result_value("N#Cc1cnc2c(c1)CCC[C@@H]2Nc1ccc2[nH]nc(Br)c2c1 (single isomer, unassigned) [Example 125, enantiomer 2]")
"100 to 1000 nM"
>>> result_value("Cc1nc2c(c(C)c1C#N)CC[C@@H]2Nc1ccc2[nH]nc(-c3cnco3)c2c1 (single isomer, unassigned) [Example 170, enantiomer 1]")
"< 100 nM"
>>> result_value("N#Cc1ccc2c(c1)CCC[C@@H]2Nc1ccc2[nH]nc(-c3ccc(C#N)nc3)c2c1 (single isomer, unassigned)")
"< 100 nM"
>>> result_value("N#Cc1ccc2c(c1)CCC[C@H]2Nc1ccc2[nH]nc(-c3cnco3)c2c1 (single isomer, unassigned) [Example 119, enantiomer 1]")
"< 100 nM"
>>> result_value("Cc1c(C#N)ccc2c1CC[C@@H]2Oc1ccc2[nH]nc(-c3cnco3)c2c1 (single isomer, unassigned) [Example 22, enantiomer 1]")
"< 100 nM"
>>> result_value("Cc1cc(-c2n[nH]c3ccc(N[C@H]4CCCc5cc(C#N)cnc54)cc23)sn1 (single isomer, unassigned) [Example 158, enantiomer 1]")
"< 100 nM"
>>> result_value("C[C@@H]1CCc2cc(C#N)ccc2[C@H]1Oc1ccc2[nH]nc(-c3cnco3)c2c1 (single isomer, unassigned) [176, enantiomer 1]")
"< 100 nM"
>>> result_value("N#Cc1nc2c(o1)CCC[C@@H]2Nc1ccc2[nH]nc(-c3cnco3)c2c1 (single isomer, unassigned) [Example 35, enantiomer 2]")
"100 to 1000 nM"
>>> result_value("Cc1c(C#N)c(Cl)nc2c1CCC[C@@H]2Nc1ccc2[nH]nc(C3CC3)c2c1 (single isomer, unassigned) [183, enantiomer 2]")
"< 100 nM"

---

target: LRRK2 G2019S (Homo sapiens, UniProt Q5S007, G2019S); assay: LRRK2 Kinase Activity Assay (LanthaScreen TR-FRET), G2019S; conditions: recombinant G2019S-LRRK2, 25 μM ATP, 400 nM LRRKtide, 60 min; class symbols
Listing of entries alongside the reported IC50.
PROPERTY_LABEL: IC50

>>> result_value("N#Cc1ccc2c(c1)CC[C@@H]2Oc1ccc2[nH]nc(-c3cnoc3)c2c1 (single isomer, unassigned) [Example 5, enantiomer 1]")
"< 100 nM"
>>> result_value("N#Cc1nc2c(s1)[C@@H](Nc1ccc3[nH]nc(-c4cnco4)c3c1)CCC2 (single isomer, unassigned) [Example 47, enantiomer 1]")
"100 to 1000 nM"
>>> result_value("Cc1c(C#N)ccc2c1CC[C@@H]2Nc1ccc2[nH]nc(-c3cnn(C(F)F)c3)c2c1 (single isomer, unassigned) [Example 52, enantiomer 1]")
"< 100 nM"
>>> result_value("N#Cc1ccc2c(c1)CCC[C@@H]2Nc1ccc2[nH]nc(-c3ccc(Br)cc3)c2c1 (single isomer, unassigned)")
"< 100 nM"
>>> result_value("N#Cc1cc2c(nc1Cl)[C@@H](Oc1ccc3[nH]nc(-c4cnoc4)c3c1)CCC2 (single isomer, unassigned) [178, enantiomer 1]")
"< 100 nM"
>>> result_value("N#Cc1ccc2c(c1)CC[C@@H]2Oc1ccc2[nH]nc(-c3cnn(C(F)F)c3)c2c1 (single isomer, unassigned) [Example 4, enantiomer 1]")
"< 100 nM"
